System: human V1A receptor (Homo sapiens, UniProt P37288) | Read-out: pKi
Sequence (P37288 whole entry): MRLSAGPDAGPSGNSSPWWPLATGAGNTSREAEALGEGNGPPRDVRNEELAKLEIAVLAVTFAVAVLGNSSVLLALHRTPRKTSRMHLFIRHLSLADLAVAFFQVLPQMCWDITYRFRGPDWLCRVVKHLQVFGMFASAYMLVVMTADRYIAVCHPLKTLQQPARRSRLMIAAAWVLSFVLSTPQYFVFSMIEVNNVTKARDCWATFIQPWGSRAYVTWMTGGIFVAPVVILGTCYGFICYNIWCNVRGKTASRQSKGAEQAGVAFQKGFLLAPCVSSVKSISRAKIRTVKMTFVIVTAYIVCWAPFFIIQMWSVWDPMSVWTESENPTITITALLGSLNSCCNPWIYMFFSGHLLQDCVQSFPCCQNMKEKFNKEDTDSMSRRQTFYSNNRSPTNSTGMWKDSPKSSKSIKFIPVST
pKi: −log10 of the molar value.
result.type: pKi

# smi, numeric.readout
data = [
    ("Cc1nnc(N2CCC3(CC2)OCc2ccccc23)n1-c1ccc(Cl)cc1", 8.18),
    ("Clc1ccc(-n2c(Cn3nccn3)nnc2N2Cc3ccccc3C2)cc1", 9.06),
]
